The reported numbers originate from patent US20250051443A1.

Reported Kd values are given for each entry in this list.
biological target: T1, human CD3 (human, UniProt P07766 23-207; P09693 23-182; P04234 22-171); assay: apparent KD (KDapp), flow cytometry titration on purified primary human T cells
T1 construct: whole, on cells; also called CD3 on Jurkat T cells; CD3 on primary human T cells
Entry rule: numbers only, all in nM.

Please review the following examples before continuing.
[
  {
    "BINDER": "F332-6D7 (antibody, mouse IgG2a, V domains shown, also called F332-6D7-2; F332-6D7 (7G4)) VH: QVQLQQPGAELGKPGTSVNLSCKASGYTFTSYWMHWVKQRPGQGLDWIGNINPNSGTTNYNEKFKSKATLTVDKSSSTAYMQLSTLTSEDSAVYYCTRDISGQYYFDYWGQGTSLTVSS VL: DIVMSQSPSSLAVSAGEKVTMSCKSSQSLLNSRTRKNYLAWYQQKPGQSPKLLIYWASTRESGVPDRFTGSGSGTDFTLTISSVQAEDLAVYYCKQSYSLRTFGGGSKLEIK",
    "QUANTITY NAME": "Kd",
    "VALUE OBSERVED": 0.46
  },
  {
    "BINDER": "F332-7C5 (antibody, mouse IgG2a, V domains shown, also called F332-7C5-2; F332-7C5 (5E12, 10A8)) VH: QVQLQQPGAELGKPGTSVKLSCKASGYTFTSYWMHWVKQRPGQGLEWIGNINPSSGITNYNERFKNKATLTVDKSSTTAYMQLSILTSEDSAVYYCSRDISGQYYFNFWGQGTTLTVSS VL: DIVMSQSPSSLAVSAGEKVTMSCKSSQSLLNSRTRKNYLAWYQQKPGQSPKLLIYWASTRESGVPDRFTGTGSGTDFTLTISSVQAEDLAVYYCKQSYNLRTFGGGTKLEIK",
    "QUANTITY NAME": "Kd",
    "VALUE OBSERVED": 0.41
  }
]

Qu. Suppose we examine the binder F332-5D4 (antibody, mouse IgG2b, V domains shown, also called F332-5D4-2; F332-5D4 (5F8)) VH: QVQLQQPGAELGKPGTSVKLSCKASGYTFTSYWMHWVKQRPGQGLEWIGNINPNGGDSNYNEKFKSKATLTVDMSSSTAYMQLSTLTSEDSAVYYCTRDISGQYYFDFWGQGTSLTVFS VL: DILMSQSPSSLAVSAGEQVTMSCKSSQSLLNSRTRKNYLAWYQQKPGQSPKLLIFWASTRKSGVPDRFTGSGSGTYFTLTINSVQTEDLAVYYCTQSYSLRTFGGGTKLEIK ; what Kd value has been reported?
Ans. 0.61
